This collection of values is drawn from paper PMC10504751.

Please respond with reported inhibition at 10 µM for every item in the list.
tested on: MALME-3M; assay: NCI one-dose SRB anti-proliferative screen; format: cell-based; conditions: Homo sapiens; MALME-3M, Melanoma; NCI one dose; read-out: Cell growth inhibition %
Units required after the number.

The value of inhibition at 10 µM recorded for O=C(CSc1nnc(-c2ccc3[nH]c(-c4ccccc4)nc3c2)o1)Nc1ccc(C(=O)/C=C/c2ccc(Cl)cc2)cc1 when tested on MALME-3M reads 0%

The value of inhibition at 10 µM recorded for COc1ccc(/C=C/C(=O)c2ccc(NC(=O)CSc3nnc(-c4ccc5[nH]c(-c6ccccc6)nc5c4)o3)cc2)cc1OC when tested on MALME-3M reads 2.37%

The value of inhibition at 10 µM recorded for COc1ccc(-c2nc3cc(-c4nnc(SCC(=O)Nc5ccc(C(=O)/C=C/c6ccc(OC)c(OC)c6)cc5)o4)ccc3[nH]2)cc1 when tested on MALME-3M reads 14.6%

The value of inhibition at 10 µM recorded for COc1ccc(-c2nc3cc(-c4nnc(SCC(=O)Nc5ccc(C(=O)/C=C/c6cc(OC)c(OC)c(OC)c6)cc5)o4)ccc3[nH]2)cc1 when tested on MALME-3M reads 3.93%

The value of inhibition at 10 µM recorded for COc1ccc(/C=C/C(=O)c2ccc(NC(=O)CSc3nnc(-c4ccc5[nH]c(-c6ccccc6)nc5c4)o3)cc2)cc1 when tested on MALME-3M reads 8.64%

The value of inhibition at 10 µM recorded for COc1ccc(/C=C/C(=O)c2ccc(NC(=O)CSc3nnc(-c4ccc5[nH]c(-c6ccc(OC)cc6)nc5c4)o3)cc2)cc1 when tested on MALME-3M reads 17.8%

The value of inhibition at 10 µM recorded for COc1cc(/C=C/C(=O)c2ccc(NC(=O)CSc3nnc(-c4ccc5[nH]c(-c6ccccc6)nc5c4)o3)cc2)cc(OC)c1OC when tested on MALME-3M reads 0%

The value of inhibition at 10 µM recorded for O=C(CSc1nnc(-c2ccc3[nH]c(-c4ccccc4)nc3c2)o1)Nc1ccc(C(=O)/C=C/c2ccccc2)cc1 when tested on MALME-3M reads 5.5%

The value of inhibition at 10 µM recorded for COc1ccc(-c2nc3cc(-c4nnc(SCC(=O)Nc5ccc(C(=O)/C=C/c6ccccc6)cc5)o4)ccc3[nH]2)cc1 when tested on MALME-3M reads 26.6%

The value of inhibition at 10 µM recorded for COc1ccc(-c2nc3cc(-c4nnc(SCC(=O)Nc5ccc(C(=O)/C=C/c6ccc(Cl)cc6)cc5)o4)ccc3[nH]2)cc1 when tested on MALME-3M reads 3.9%

###

assay: MTT cell viability assay in normal cells; assay type: cell-based; conditions: human, MCF-10A normal mammary epithelial cells
Please respond with reported viability at 96 h, 50 µM for every item in the list.
Hi! Could you send only the number? It should be in %, unit omitted.

COc1ccc(-c2nc3cc(-c4nnc(SCC(=O)Nc5ccc(C(=O)/C=C/c6cc(OC)c(OC)c(OC)c6)cc5)o4)ccc3[nH]2)cc1 [Compound 7o] yielded viability at 96 h, 50 µM of 89

COc1ccc(/C=C/C(=O)c2ccc(NC(=O)CSc3nnc(-c4ccc5[nH]c(-c6ccc(Cl)cc6)nc5c4)o3)cc2)cc1OC [Compound 7i] yielded viability at 96 h, 50 µM of 84

COc1ccc(-c2nc3cc(-c4nnc(SCC(=O)Nc5ccc(C(=O)/C=C/c6cc(OC)c(OC)c(OC)c6)cc5)o4)ccc3[nH]2)cc1OC [Compound 7t] yielded viability at 96 h, 50 µM of 88

O=C(CSc1nnc(-c2ccc3[nH]c(-c4ccccc4)nc3c2)o1)Nc1ccc(C(=O)/C=C/c2ccc(Cl)cc2)cc1 [Compound 7b] yielded viability at 96 h, 50 µM of 88

COc1ccc(/C=C/C(=O)c2ccc(NC(=O)CSc3nnc(-c4ccc5[nH]c(-c6ccc(Cl)cc6)nc5c4)o3)cc2)cc1 [Compound 7h] yielded viability at 96 h, 50 µM of 87
